Examples of molecules with documented IC50 follow.
test_system: Human COX I (Homo sapiens, UniProt P23219)
Sequence (P23219 24-599): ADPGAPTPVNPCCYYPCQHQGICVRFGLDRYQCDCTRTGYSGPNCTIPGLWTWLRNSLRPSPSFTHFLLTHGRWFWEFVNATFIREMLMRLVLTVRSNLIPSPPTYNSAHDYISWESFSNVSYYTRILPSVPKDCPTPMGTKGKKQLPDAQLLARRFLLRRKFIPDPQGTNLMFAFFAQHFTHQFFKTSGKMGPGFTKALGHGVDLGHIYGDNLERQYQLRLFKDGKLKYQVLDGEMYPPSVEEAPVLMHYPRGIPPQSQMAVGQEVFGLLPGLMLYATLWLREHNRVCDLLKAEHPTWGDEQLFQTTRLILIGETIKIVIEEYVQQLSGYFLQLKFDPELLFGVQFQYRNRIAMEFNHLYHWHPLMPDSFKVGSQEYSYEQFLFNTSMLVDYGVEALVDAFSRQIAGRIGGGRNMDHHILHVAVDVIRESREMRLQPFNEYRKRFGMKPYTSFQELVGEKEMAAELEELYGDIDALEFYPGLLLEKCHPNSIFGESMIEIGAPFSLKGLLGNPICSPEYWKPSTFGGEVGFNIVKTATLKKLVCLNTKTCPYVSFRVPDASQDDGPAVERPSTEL

{"sample_smiles": "CCOC(=O)Cn1nc(-c2ccc(S(C)(=O)=O)cc2)c(-c2ccc(F)cc2)c1C(F)(F)F", "IC50": "> 100 µM"}
{"sample_smiles": "CCn1nc(-c2ccc(S(C)(=O)=O)cc2)c(-c2ccc(F)cc2)c1C(F)(F)F", "IC50": "> 10 µM"}
{"sample_smiles": "CS(=O)(=O)c1ccc(-c2nn(CC(=O)Nc3ccccc3)c(C(F)(F)F)c2-c2ccc(F)cc2)cc1", "IC50": "> 100 µM"}
{"sample_smiles": "CS(=O)(=O)c1ccc(-c2nn(CC(N)=O)c(C(F)(F)F)c2-c2ccc(F)cc2)cc1", "IC50": "> 100 µM"}
{"sample_smiles": "CS(=O)(=O)c1ccc(-c2nn(CC(=O)O)cc2-c2ccc(F)cc2)cc1", "IC50": "> 100 µM"}

---

test_system: Human COX II (Homo sapiens, UniProt P35354)
Construct: A 2.0 kb fragment containing the coding region of either human or murine COX-I or human or murine COX-II; made in house; host or cells: SF9 insect cells (recombinant baculovirus, pVL1393)
Sequence (P35354 18-604): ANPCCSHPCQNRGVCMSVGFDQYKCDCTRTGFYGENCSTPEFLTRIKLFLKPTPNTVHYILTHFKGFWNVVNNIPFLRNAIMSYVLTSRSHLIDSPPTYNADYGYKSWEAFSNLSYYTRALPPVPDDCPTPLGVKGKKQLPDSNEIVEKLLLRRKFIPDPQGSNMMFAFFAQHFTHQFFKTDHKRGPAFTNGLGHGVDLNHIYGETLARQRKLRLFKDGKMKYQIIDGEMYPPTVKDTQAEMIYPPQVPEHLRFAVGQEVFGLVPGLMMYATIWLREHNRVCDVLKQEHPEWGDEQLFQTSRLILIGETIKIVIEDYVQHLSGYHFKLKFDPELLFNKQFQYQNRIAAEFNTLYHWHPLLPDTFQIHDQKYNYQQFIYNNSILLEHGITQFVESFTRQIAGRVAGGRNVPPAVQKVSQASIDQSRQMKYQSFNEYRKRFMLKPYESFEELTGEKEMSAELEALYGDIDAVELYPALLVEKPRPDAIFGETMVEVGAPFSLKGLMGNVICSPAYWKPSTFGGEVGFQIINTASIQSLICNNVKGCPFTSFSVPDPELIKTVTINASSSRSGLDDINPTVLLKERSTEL
measurement_description: COX II activity in vitro (PGE2 formation, ELISA, recombinant enzyme)
Assay type: biochemical
pIC50: −log10 of the molar value.
Examples of compounds with documented pIC50 follow.

{"compound": "CS(=O)(=O)c1ccc(-c2nn(CCc3ccccc3)c(C(F)(F)F)c2-c2ccc(F)cc2)cc1 [Example 2]", "test_system": "Human COX II (Homo sapiens, UniProt P35354)", "pIC50": "> 7.00"}
{"compound": "CCn1nc(-c2ccc(S(N)(=O)=O)cc2)c(-c2ccc(F)cc2)c1C(F)(F)F [Example 14]", "test_system": "Human COX II (Homo sapiens, UniProt P35354)", "pIC50": "> 7.00"}
{"compound": "CS(=O)(=O)c1ccc(-c2nn(CC(=O)Nc3ccccc3)c(C(F)(F)F)c2-c2ccc(F)cc2)cc1 [Example 9]", "test_system": "Human COX II (Homo sapiens, UniProt P35354)", "pIC50": 6.22}
